Molecular target: Neuronal acetylcholine receptor; alpha4/beta2 (Rattus norvegicus, UniProt P09483+P12390)
Sequence (P09483 whole entry): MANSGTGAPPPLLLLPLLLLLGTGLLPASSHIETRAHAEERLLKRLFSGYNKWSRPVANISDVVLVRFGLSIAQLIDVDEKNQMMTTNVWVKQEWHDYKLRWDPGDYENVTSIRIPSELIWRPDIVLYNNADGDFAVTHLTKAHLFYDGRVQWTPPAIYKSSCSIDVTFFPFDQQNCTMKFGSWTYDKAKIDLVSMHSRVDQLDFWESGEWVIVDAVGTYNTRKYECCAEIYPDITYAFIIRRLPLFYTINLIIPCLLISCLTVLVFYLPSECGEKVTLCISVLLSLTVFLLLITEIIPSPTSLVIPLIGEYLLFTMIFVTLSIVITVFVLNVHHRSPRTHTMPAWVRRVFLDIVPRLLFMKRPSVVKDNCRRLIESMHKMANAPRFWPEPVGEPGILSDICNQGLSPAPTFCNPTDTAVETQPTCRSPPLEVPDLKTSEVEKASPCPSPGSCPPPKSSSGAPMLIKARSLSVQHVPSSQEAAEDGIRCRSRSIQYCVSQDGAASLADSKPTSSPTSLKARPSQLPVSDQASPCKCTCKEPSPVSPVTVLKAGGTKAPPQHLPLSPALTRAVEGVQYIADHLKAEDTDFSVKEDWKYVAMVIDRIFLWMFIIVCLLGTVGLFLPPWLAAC
Sequence (P12390 whole entry): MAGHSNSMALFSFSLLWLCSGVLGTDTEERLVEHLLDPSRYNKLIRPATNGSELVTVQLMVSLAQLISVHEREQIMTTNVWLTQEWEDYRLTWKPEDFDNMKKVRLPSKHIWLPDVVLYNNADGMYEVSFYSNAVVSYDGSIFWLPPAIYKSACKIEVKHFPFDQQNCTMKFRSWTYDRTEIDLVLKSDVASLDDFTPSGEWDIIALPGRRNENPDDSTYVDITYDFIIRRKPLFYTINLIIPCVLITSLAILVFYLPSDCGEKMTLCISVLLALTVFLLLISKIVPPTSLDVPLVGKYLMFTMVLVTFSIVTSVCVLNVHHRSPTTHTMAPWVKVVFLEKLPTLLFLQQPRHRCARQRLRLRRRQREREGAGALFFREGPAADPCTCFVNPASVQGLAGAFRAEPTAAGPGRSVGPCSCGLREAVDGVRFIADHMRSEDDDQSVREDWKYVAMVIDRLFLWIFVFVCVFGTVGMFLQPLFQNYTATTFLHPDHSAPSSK
Assay: Agonist activity at alpha4beta2 nAChR in Sprague-Dawley rat striatal slices assessed as increase in [3H]-Dopamine release after 5 mins by microbeta counting
Format: protein-complex assay
Details: read-out: EC50
Overview of reported EC50 across a group of molecules:
All answers are understood in nM, so give the number only.

Clc1cncc(N2CC3CC(C2)N3)c1    1.4

// next entry
stdin: Give the observed EC50 of `Clc1ccc(N2CC3CC(C2)N3)cn1` for Neuronal acetylcholine receptor; alpha4/beta2 (Rattus norvegicus, UniProt P09483+P12390).
stdout: 1.16

Where these numbers come from: ChEMBL document CHEMBL3627604
